Data origin: paper PMC8237267

Target: HDAC11 (Homo sapiens)
Construct: The full-length human HDACs were recombinantly expressed and purified from SF9 insect cells; host or cells: SF9 insect cells
Sequence (Q96DB2 whole entry): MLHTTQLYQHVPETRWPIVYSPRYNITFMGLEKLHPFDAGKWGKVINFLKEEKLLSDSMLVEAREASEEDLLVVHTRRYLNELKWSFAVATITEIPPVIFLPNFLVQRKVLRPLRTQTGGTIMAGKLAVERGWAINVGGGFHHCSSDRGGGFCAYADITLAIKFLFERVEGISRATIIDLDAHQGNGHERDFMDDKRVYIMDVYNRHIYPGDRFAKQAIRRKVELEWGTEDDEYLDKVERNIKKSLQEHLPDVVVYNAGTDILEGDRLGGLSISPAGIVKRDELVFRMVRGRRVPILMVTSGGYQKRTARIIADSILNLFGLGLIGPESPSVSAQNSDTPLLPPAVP
Assay: HDAC EMSA activity assay (Nanosyn)
Format: biochemical
Details: recombinant enzyme, read-out: In vitro IC50 HDAC11
Reported values of IC50 for individual entries

Sample records with IC50:
# smiles_representation, IC50
data = [
    ("O=C(NO)c1ccc(CN(C2CC2)S(=O)(=O)c2c(F)c(Cl)c(F)c(Cl)c2F)cc1", "364 nM"),
    ("O=C(NO)c1ccc(CN(C2CC2)S(=O)(=O)c2c(F)cc(F)c(Cl)c2F)cc1", "> 1000 nM"),
    ("O=C(NO)c1ccc(CN(C2CC2)S(=O)(=O)c2ccc(F)cc2)cc1", "> 1000 nM"),
]

Field IC50 (entry `O=C(NO)c1ccc(CN(C2CC2)S(=O)(=O)c2c(F)cc(F)cc2F)cc1` ) reads > 1000 nM

Field IC50 (entry `CN(Cc1ccc(C(=O)NO)cc1)S(=O)(=O)c1c(F)c(F)c(F)c(F)c1F` ) reads 246 nM

###

Assay: In vitro stability in mouse hepatocytes
Format: in vitro ADME
Conditions: read-out: Stability in mouse hepatocytes t1/2
endpoint_label: half-life at 1 μM (min)
Expressed in min, but write only the number.

Field half-life at 1 μM (entry `O=C(NO)c1ccc(CN(C2CC2)S(=O)(=O)c2cc(F)c(F)c(F)c2F)cc1` ) reads 37

###

Test system: SU-DHL-1
Experiment: Cytotoxicity assay (Cell Titer-Blue, 72 h)
Assay type: cell-based
Settings: Homo sapiens, ALK+ ALCL, one representative of three experiments, read-out: IC50 (heat map) SU-DHL-1
endpoint_label: pIC50
Answer as the number alone; pIC50 is minus log10 of concentration in mol/L.

Field pIC50 (entry O=C(CCCCCCNC(=O)c1cnc(N(c2ccccc2)c2ccccc2Cl)nc1)NO [Citarinostat] ) reads 5.33

###

Biological target: HDAC3 (Homo sapiens, UniProt O15379)
Construct: The full-length human HDACs were recombinantly expressed and purified from SF9 insect cells; host or cells: SF9 insect cells
Sequence (O15379 whole entry): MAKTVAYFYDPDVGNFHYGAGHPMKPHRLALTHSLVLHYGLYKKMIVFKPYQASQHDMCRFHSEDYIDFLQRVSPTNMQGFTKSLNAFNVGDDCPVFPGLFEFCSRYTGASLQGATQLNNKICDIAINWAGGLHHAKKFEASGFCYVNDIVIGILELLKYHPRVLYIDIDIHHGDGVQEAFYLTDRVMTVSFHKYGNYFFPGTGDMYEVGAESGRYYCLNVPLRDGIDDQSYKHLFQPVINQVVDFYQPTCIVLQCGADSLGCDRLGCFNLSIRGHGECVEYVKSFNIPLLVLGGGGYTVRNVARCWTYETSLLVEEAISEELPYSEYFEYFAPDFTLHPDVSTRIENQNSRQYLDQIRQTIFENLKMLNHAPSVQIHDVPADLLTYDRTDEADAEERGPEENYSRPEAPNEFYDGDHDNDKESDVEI
Sequence (Q9Y618 395-489 partner limits assumed): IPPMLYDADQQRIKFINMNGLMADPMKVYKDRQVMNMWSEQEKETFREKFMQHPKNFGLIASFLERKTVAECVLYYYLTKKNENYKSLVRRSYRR
Experiment: HDAC EMSA activity assay (Nanosyn)
Type: biochemical
Details: recombinant enzyme, read-out: In vitro IC50 HDAC3
pIC50: −log10 of the molar value.
endpoint_label: pIC50

# smiles_representation, pIC50
data = [
    ("CC(C)N(Cc1ccc(C(=O)NO)cc1)S(=O)(=O)c1c(F)c(F)c(F)c(F)c1F", 6.03),
    ("O=C(NO)c1ccc(CN(C2CC2)S(=O)(=O)c2cc(F)c(F)c(F)c2)cc1", "< 6.00"),
    ("O=C(NO)c1ccc(CNS(=O)(=O)c2c(F)c(F)c(F)c(F)c2F)cc1", "< 6.00"),
    ("O=C(NO)c1ccc(CNC(=O)c2c(F)c(F)c(F)c(F)c2F)cc1", 6.70),
    ("O=C(NO)c1ccc(CN(C2CC2)S(=O)(=O)c2c(F)c(F)c(F)c(F)c2F)cc1", 7.15),
]

Field pIC50 (entry `O=C(NO)c1ccc(CN(C2CC2)S(=O)(=O)c2c(F)cc(F)c(Cl)c2F)cc1` ) reads < 6.00

Field pIC50 (entry `O=C(NO)c1ccc(CN(C2CC2)S(=O)(=O)c2c(F)cc(F)cc2F)cc1` ) reads < 6.00

Field pIC50 (entry `O=C(NO)c1ccc(CN(C2CC2)S(=O)(=O)c2c(F)c(F)c(Cl)c(F)c2F)cc1` ) reads < 6.00

Field pIC50 (entry `O=C(NO)c1ccc(CN(C2CC2)S(=O)(=O)c2c(F)c(F)cc(F)c2F)cc1` ) reads < 6.00

Field pIC50 (entry `O=C(NO)c1ccc(CN(C2CC2)S(=O)(=O)c2ccc(F)cc2)cc1` ) reads 6.08

Field pIC50 (entry `O=C(NO)c1ccc(CN(C2CC2)S(=O)(=O)c2c(F)c(Cl)c(F)c(Cl)c2F)cc1` ) reads < 6.00

Field pIC50 (entry `O=C(NO)c1cccc(CN(C2CC2)S(=O)(=O)c2c(F)c(F)c(F)c(F)c2F)c1` ) reads < 6.00

###

Target: HDAC10 (Homo sapiens)
Construct: The full-length human HDACs were recombinantly expressed and purified from SF9 insect cells
Sequence (Q969S8 whole entry): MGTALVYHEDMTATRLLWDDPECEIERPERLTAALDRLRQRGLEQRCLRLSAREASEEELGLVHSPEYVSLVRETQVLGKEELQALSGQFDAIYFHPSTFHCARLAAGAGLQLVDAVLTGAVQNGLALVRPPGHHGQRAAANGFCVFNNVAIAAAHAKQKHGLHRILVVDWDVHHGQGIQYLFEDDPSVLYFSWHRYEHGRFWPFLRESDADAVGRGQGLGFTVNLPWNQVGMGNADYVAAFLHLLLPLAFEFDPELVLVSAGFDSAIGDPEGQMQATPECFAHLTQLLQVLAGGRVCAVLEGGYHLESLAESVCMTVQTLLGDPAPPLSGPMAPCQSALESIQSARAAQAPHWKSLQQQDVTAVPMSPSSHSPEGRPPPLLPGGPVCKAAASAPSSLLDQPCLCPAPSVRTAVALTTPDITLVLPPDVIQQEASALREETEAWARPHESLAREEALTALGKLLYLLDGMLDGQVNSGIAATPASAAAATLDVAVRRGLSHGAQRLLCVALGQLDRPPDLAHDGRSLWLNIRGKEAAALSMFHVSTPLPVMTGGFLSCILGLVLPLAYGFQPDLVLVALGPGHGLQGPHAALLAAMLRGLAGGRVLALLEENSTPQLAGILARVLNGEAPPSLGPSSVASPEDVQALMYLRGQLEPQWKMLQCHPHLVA
Assay: HDAC EMSA activity assay (Nanosyn)
pIC50: −log10 of the molar value.
endpoint_label: pIC50

Field pIC50 (entry O=C(NO)c1ccc(CN(C2CC2)S(=O)(=O)c2cc(F)c(F)c(F)c2F)cc1 [Compound 14] ) reads < 6.00

###

Tested on: NK-92
Test: Cytotoxicity assay (Cell Titer-Blue, 72 h)
Format: cell-based
Conditions: NK92; LGL; one representative of three experiments; read-out: IC50 (heat map) NK-92
endpoint_label: IC50 (µM)
Expressed in µM, but write only the number.

Field IC50 (entry O=C(CCCCCCNC(=O)c1cnc(N(c2ccccc2)c2ccccc2Cl)nc1)NO [Citarinostat] ) reads 1.97

###

Test: Stability in mouse plasma
Type: in vitro ADME
Parameters: dose or concentration left out as unconfirmed
Conditions: read-out: Plasma stability t1/2
endpoint_label: half-life at 2 h (min)
Expressed in min, but write only the number.

Field half-life at 2 h (entry O=C(NO)c1ccc(CN(C2CC2)S(=O)(=O)c2c(F)c(F)cc(F)c2F)cc1 [Compound 6] ) reads 25

###

Experiment: In vitro stability in mouse hepatocytes
Format: in vitro ADME
Conditions: read-out: Stability in mouse hepatocytes t1/2
endpoint_label: half-life at 2 h, 1 μM (min)
Expressed in min, but write only the number.

Field half-life at 2 h, 1 μM (entry O=C(NO)c1ccc(CN(C2CC2)S(=O)(=O)c2cc(F)c(F)c(F)c2F)cc1 [Compound 14] ) reads 36.9

###

Biological target: HDAC7 (Homo sapiens, UniProt Q8WUI4)
Construct: The full-length human HDACs were recombinantly expressed and purified from SF9 insect cells
Sequence (Q8WUI4 whole entry): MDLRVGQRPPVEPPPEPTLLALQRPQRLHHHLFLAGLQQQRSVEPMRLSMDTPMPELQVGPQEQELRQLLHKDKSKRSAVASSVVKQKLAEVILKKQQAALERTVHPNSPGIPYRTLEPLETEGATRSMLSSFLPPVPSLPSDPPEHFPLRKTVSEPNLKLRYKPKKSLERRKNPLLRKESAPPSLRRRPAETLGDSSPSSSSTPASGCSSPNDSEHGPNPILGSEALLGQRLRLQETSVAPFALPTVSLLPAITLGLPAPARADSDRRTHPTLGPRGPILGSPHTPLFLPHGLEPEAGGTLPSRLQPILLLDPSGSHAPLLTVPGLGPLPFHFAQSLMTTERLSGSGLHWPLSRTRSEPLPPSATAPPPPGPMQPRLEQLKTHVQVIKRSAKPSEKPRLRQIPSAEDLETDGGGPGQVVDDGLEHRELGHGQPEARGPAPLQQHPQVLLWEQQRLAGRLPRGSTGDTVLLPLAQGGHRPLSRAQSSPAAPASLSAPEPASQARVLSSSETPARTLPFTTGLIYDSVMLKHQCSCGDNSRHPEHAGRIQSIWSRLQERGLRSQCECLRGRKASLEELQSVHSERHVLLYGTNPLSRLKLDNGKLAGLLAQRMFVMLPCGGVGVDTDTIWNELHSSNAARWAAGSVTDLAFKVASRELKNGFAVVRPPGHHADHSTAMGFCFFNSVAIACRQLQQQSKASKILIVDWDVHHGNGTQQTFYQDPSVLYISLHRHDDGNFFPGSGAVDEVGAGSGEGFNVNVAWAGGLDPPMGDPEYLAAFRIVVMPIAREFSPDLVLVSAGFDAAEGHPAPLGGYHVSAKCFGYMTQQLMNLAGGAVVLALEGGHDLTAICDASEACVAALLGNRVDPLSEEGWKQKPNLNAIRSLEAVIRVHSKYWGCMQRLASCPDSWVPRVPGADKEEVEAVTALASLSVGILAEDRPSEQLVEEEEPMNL
Assay: HDAC EMSA activity assay (Nanosyn)
endpoint_label: IC50

Field IC50 (entry `O=C(NO)c1ccc(CN(C2CC2)S(=O)(=O)c2cc(F)c(F)c(F)c2F)cc1` ) reads > 1000 nM

###

Reported values of HDAC6 fold-selectivity for individual entries
Target: HDAC6 (Homo sapiens)
Sequence (Q9UBN7 whole entry): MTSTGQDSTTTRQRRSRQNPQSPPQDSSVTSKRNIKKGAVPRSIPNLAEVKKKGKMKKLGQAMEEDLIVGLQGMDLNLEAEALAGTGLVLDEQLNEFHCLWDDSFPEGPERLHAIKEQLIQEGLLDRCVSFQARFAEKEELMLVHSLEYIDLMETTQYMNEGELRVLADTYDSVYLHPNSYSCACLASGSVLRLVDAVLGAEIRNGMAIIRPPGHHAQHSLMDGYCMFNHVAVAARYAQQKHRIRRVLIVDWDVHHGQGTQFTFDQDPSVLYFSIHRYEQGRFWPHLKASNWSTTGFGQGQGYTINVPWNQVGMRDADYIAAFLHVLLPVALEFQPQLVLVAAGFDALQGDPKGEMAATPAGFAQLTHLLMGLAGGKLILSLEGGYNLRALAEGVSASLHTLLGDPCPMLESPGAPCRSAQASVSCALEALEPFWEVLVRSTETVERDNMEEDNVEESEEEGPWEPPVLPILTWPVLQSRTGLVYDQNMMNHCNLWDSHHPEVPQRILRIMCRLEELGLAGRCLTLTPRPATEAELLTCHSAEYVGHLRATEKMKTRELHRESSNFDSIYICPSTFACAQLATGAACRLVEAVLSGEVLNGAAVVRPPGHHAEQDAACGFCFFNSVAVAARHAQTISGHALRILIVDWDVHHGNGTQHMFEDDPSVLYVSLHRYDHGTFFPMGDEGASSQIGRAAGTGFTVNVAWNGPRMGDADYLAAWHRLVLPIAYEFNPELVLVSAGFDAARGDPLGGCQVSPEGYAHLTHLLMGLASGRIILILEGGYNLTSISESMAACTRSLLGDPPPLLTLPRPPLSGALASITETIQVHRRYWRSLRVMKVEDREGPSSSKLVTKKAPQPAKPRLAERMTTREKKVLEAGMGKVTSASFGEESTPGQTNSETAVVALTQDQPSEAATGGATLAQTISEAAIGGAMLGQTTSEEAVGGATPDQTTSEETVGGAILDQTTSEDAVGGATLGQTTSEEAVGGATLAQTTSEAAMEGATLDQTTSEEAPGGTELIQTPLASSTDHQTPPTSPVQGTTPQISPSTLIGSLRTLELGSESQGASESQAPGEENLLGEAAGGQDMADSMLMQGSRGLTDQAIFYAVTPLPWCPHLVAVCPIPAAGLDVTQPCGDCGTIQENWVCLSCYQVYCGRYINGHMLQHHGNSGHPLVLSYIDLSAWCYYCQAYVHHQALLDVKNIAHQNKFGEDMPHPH
Assay: HDAC EMSA activity assay (Nanosyn)
Assay type: biochemical
Set-up: The full-length human HDACs were recombinantly expressed and purified from SF9 insect cells; host or cells: SF9 insect cells
Details: over the next closest HDAC isoform tested; * = selectivity ≥ indicated value
Expressed in fold, but write only the number.

Sample records with HDAC6 fold-selectivity:
# molecule, measured_value
measured = [
    ("O=C(NO)c1ccc(CN(C2CC2)S(=O)(=O)c2ccc(F)cc2)cc1 [Compound 7]", 25.5),
    ("O=C(NO)c1ccc(CN(C2CC2)S(=O)(=O)c2c(F)cc(F)cc2F)cc1 [Compound 9]", 39.4),
    ("O=C(NO)c1ccc(CN(C2CC2)S(=O)(=O)c2c(F)c(Cl)c(F)c(Cl)c2F)cc1 [Compound 11]", 14.3),
    ("O=C(NO)c1ccc(CN(C2CC2)S(=O)(=O)c2c(F)c(F)cc(F)c2F)cc1 [Compound 6]", 37.8),
]

Okay, now this molecule:
Case O=C(NO)c1ccc(CN(C2CC2)S(=O)(=O)c2c(F)cc(F)c(Cl)c2F)cc1 [Compound 12] , HDAC6 (Homo sapiens), HDAC6 fold-selectivity recorded as 22.3

###

Experiment: Stability in mouse plasma
Format: in vitro ADME
Conditions: read-out: Plasma stability t1/2
endpoint_label: half-life at 1 μM (min)
Expressed in min, but write only the number.

Field half-life at 1 μM (entry `O=C(NO)c1ccc(CN(C2CC2)S(=O)(=O)c2cc(F)c(F)c(F)c2F)cc1` ) reads 41

###

Molecular target: HDAC11 (Homo sapiens)
Construct: The full-length human HDACs were recombinantly expressed and purified from SF9 insect cells; host or cells: SF9 insect cells
Experiment: HDAC EMSA activity assay (Nanosyn)
Format: biochemical
Conditions: recombinant enzyme, read-out: In vitro IC50 HDAC11
pIC50: −log10 of the molar value.
Reported values of pIC50 for individual entries

# smiles_representation, endpoint_label, measured_value
data = [
    ("O=C(NO)c1ccc(CN(C2CC2)S(=O)(=O)c2c(F)c(F)cc(F)c2F)cc1", "pIC50", "< 6.00"),
    ("O=C(NO)c1ccc(CN(C2CC2)S(=O)(=O)c2c(F)c(F)c(F)c(F)c2F)cc1", "pIC50", 7.33),
    ("O=C(NO)c1ccc(CNC(=O)c2c(F)c(F)c(F)c(F)c2F)cc1", "pIC50", "< 6.00"),
    ("O=C(NO)c1ccc(CN(C2CC2)S(=O)(=O)c2c(F)c(F)c(Cl)c(F)c2F)cc1", "pIC50", "< 6.00"),
]

Okay, now this compound:
Field pIC50 (entry `O=C(NO)c1ccc(CN(C2CC2)S(=O)(=O)c2cc(F)c(F)c(F)c2)cc1` ) reads < 6.00
